B1: IFRG15 (parent)
chain: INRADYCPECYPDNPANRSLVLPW

Variants of: B1
test.protocol: protein stability index of a GFP-peptide fusion (GPS, HEK-293T) (PSI 1-6); higher = more stable;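 further: lentivirally expressed fusions sorted by FACS into six bins by GFP to DsRed ratio, PSI derived from sequencing read proportions per bin multiplied by bin number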
details: c terminus: a fixed tail appended
Label rule, in plain words: protein stability index of 2 and up is 1, under 2 is 0.

INRADYCPECYPDNPANMSLVLPW
1
INRADYCPECYPDNPANRSLVGPW
1
INRADYCPECYPDNPANRSLVLPH
1
INRADYCPECYMDNPANRSLVLPW
1
INRADYCPECYPDNPANRSWVLPW
0

Enquiry: Test whether the variant INRADYCPECYPDNPANRSLVLPL records protein stability index of 2 or higher.
Return: 0

Enquiry: Test whether the variant INRADYCPECYPDNPANHSLVLPW records protein stability index of 2 or higher.
Return: 1

Enquiry: Test whether the variant INYADYCPECYPDNPANRSLVLPW records protein stability index of 2 or higher.
Return: 0

Enquiry: Test whether the variant LNRADYCPECYPDNPANRSLVLPW records protein stability index of 2 or higher.
Return: 1

Attribution: the supplement of paper PMC10567573
